The origin of these recorded values is the Human Domainome abundance scans (Beltran et al. 2025).

B1: RNA-binding E3 ubiquitin-protein ligase MEX3C, residues 325 to 391; numbered along this chain, Q5U5Q3 (parent)
chain: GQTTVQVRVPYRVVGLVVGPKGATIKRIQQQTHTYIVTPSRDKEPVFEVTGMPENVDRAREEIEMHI

# Variants of: B1
# protocol: abundance fitness (aPCA) (normalised: wild type 0, dead -1); higher = more abundant; growth selection in yeast, the domain comes from the species named
# experimental_conditions: Homo sapiens
Label yes when abundance fitness is at or above -0.6; otherwise label no.

* Q29G | yes
* G22R | yes
* P45C | yes
* G19N | no
* E44T | no
* E48L | yes
* G51S | no
* M52S | yes
* K26Q | yes
* M52W | yes
* R41C | yes
* N55M | yes
* N55R | no
* V46H | yes
* Y35D | yes
* R41S | yes
* Q30V | yes
* A23H | yes
* M52N | no
* K21R | yes
* E54F | no
* V46K | yes
* G51P | no
* S40D | yes
* T34K | yes
* T50G | no
* I25P | no
* H33D | yes
* Q31E | yes
